Assay: NCI Yeast Anticancer Drug Screen. Data for the rad50 strain (AID 155);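 note: 0% = growth of vehicle-only cultures of the same strain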
Settings: S. cerevisiae rad50 strain growth inhibition; at 50.0 µM (retest, dose inferred, filed as 5.0); active compounds read high
Method: Growth inhibition of yeast strains with defined genetic alterations is measured as a screen for potential anti-cancer activity. Selected strains with alterations in DNA damage repair or cell cycle control were exposed to compounds and growth inhibition was measured relative to vehicle treated controls. The strain used in this assay is rad50
Compounds without any hit were thinned out: in the full panel of roughly 79,000, 15% have a hit.
Think of 80% as a floor: if growth inhibition stands on it or above, it is T; beneath it, F.

Example cases with answers are listed next.
# COMPOUND, ANSWER_LABEL
rows = [
    ("Oc1c(Cl)cc(Cl)cc1Cl", "T"),
    ("c1ccc(N=c2nc(N3CCOCC3)ss2)cc1", "T"),
    ("CCC(C)N1CN(c2ccccc2)C2(CCN(CCCC3(c4ccc(F)cc4)OCCO3)CC2)C1=O (stereo unspecified)", "T"),
    ("CN(C)C(=[Se])[Se]C(=[Se])N(C)C", "T"),
    ("O=[N+]([O-])c1cc2c([N+](=O)[O-])cccc2o1", "T"),
    ("CC[C@]1(O)CC(OC2CC(N(C)C)C(O)C(C)O2)c2c(cc3c(c2O)C(=O)c2c(O)cccc2C3=O)[C@@H]1C(=O)OC (stereo partly specified)", "T"),
]

Dear colleague, could you confirm whether Fc1ccc(NP(=S)(Nc2ccc(F)cc2F)Nc2ccc(F)cc2F)c(F)c1 has growth inhibition at or above 80%?
T

Dear colleague, could you confirm whether Cc1cc(N(C)C)c2ccccc2[n+]1CCCCCCCCCC[n+]1c(C)cc(N(C)C)c2ccccc21 has growth inhibition at or above 80%?
T

---

Test: NCI Yeast Anticancer Drug Screen. Data for the rad50 strain (AID 155);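 note: 0% = growth of vehicle-only cultures of the same strain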
Conditions: S. cerevisiae rad50 strain growth inhibition; at 50.0 µM
About 79,000 compounds went through this panel and 15% of them were active in at least one assay; those are over-represented in the sample as a whole. Activity calls are given as the source filed them. Rule as the data show it: active = growth inhibition above about 70%; inactive = the rest.
Reply using exactly one outcome from yes (1) = active, no (0) = inactive

# COMPOUND, ANSWER_LABEL
rows = [
    ("O=[N+]([O-])c1ccc(C=Cc2ccc(C(F)(F)F)cc2)cc1.[C-]#[O+].[C-]#[O+].[C-]#[O+].[Cr]", "no (0)"),
    ("COC(=O)C(F)C(Br)C(=O)OC (stereo not given)", "yes (1)"),
    ("COc1cc(C=Nc2cc(Br)c(OC)c(Br)c2)ccc1N(CCCl)CCCl", "yes (1)"),
    ("CC1(C)CC(=O)C([Se]C2=C(O)CC(C)(C)CC2=O)=C(O)C1", "yes (1)"),
]

For COc1ccc2c3c(c4cc(OC)c(OC)cc4c2c1)C[C@H]1CCCCN1C3 , what call appears in the results of this test?
yes (1)

---

Listed here: items and their measured growth inhibition.
Experiment: NCI Yeast Anticancer Drug Screen. Data for the cln2 rad14 strain (AID 165);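 note: 0% = growth equal to vehicle treated cultures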
Conditions: S. cerevisiae cln2 rad14 strain, at 5.0 µM (retest, dose inferred, filed as 0.5), active compounds read high
About 79,000 compounds went through this panel and 15% of them were active in at least one assay; those are over-represented in the sample as a whole. Active and inactive are the calls of the source. No stated cut-off is given here; in the data, active means growth inhibition above about 70%; inactive means the rest.

Consider the worked cases shown below.
# MOLECULE, growth inhibition
data = [
    ("c1ccc([Te][Te]c2ccccc2)cc1", "49% (inactive)"),
    ("CCN(CC)C(=S)S", "8% (inactive)"),
    ("O=S(=O)([O-])[O-].[OH3+].[OH3+].[OH3+].[Ru+2].c1ccccc1", "-9% (inactive)"),
    ("CCC[CH2][Sn]1([CH2]CCC)[O]C(=O)C(C(C)C)N=Cc2ccccc2[O]1 (stereo unspecified)", "7% (inactive)"),
    ("CC(=O)[O][Hg][c]1c(C)c(C)c(C)c(C)c1C", "98% (active)"),
]

Attention now turns to another entry.
Please give the documented growth inhibition of O=[N+]([O-])c1ccc([Se]CCBr)c([N+](=O)[O-])c1
2% (inactive)

---

Assay: NCI Yeast Anticancer Drug Screen. Data for the wt1 strain (AID 149);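 note: 0% = growth of vehicle-treated wt1 cultures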
Conditions: S. cerevisiae wt1 strain (SPY 50644) growth inhibition; at 100.0 µM; active compounds read high
Protocol: Growth inhibition of yeast strains with defined genetic alterations is measured as a screen for potential anti-cancer activity. Selected strains with alterations in DNA damage repair or cell cycle control were exposed to compounds and growth inhibition was measured relative to vehicle treated controls. The strain used in this assay is wt1
About 79,000 compounds went through this panel and 15% of them were active in at least one assay; those are over-represented in the sample as a whole.
Think of 20% as a floor: if growth inhibition stands on it or above, it is 1; beneath it, -1.

Example cases with answers are listed next.
# COMPOUND, ANSWER_LABEL
rows = [
    ("CCOP(=S)(S)OCC.[Pd]", 1),
    ("COC(=O)C1=C(C(=O)OC)C2OC1c1cc3ccccc3cc12", 1),
    ("O=C(COc1ccc(Cl)cc1Cl)NO", 1),
    ("COc1cccc2c1C(=O)c1c(O)c3c(c(O)c1C2=O)C[C@@](O)(C(C)=O)C[C@@H]3OC1CC(N)C(OC2CC(O)C(O)C(C)O2)C(C)O1 (some centres not stated)", -1),
]

Dear colleague, could you confirm whether O=S(=O)(O)/C(=C\c1ccccc1)c1ccccc1 (tested in a mixture with another compound) has growth inhibition at or above 20%?
-1

Dear colleague, could you confirm whether CSc1ccccc1[As](C)C has growth inhibition at or above 20%?
1

Dear colleague, could you confirm whether COc1ccc(/C=C(/C)[N+](=O)[O-])cc1 has growth inhibition at or above 20%?
1

Dear colleague, could you confirm whether O=C(c1ccccc1)C1C(c2ccccc2[N+](=O)[O-])N1C1CCCCC1 (configuration not stated) has growth inhibition at or above 20%?
1

Dear colleague, could you confirm whether CC[C@@]1(O)C(=O)OCc2c1cc1n(c2=O)Cc2cc3ccccc3nc2-1 has growth inhibition at or above 20%?
1

Dear colleague, could you confirm whether O=[N+]([O-])c1ccc(N2CCC(CCCC3CCN(c4ccc([N+](=O)[O-])cc4[N+](=O)[O-])CC3)CC2)c([N+](=O)[O-])c1 has growth inhibition at or above 20%?
-1

Dear colleague, could you confirm whether CC(=O)O/C(=C1\C[C@H]2[C@@H]3CC=C4C[C@@H](OC(C)=O)CC[C@]4(C)[C@H]3CC[C@]2(C)C1=O)C(F)(F)F has growth inhibition at or above 20%?
-1

Dear colleague, could you confirm whether CC1=C2C(=C[C@@](C)(CO)[C@@H]2O)C(=O)[C@](C)(O)C12CC2 has growth inhibition at or above 20%?
1

Dear colleague, could you confirm whether O=[N+]([O-])c1cc(S(=O)(=O)F)ccc1Cl has growth inhibition at or above 20%?
1

Dear colleague, could you confirm whether CC1(Cl)CC(C)(/C=C/Cl)C(Cl)CC1Cl (configuration not stated) has growth inhibition at or above 20%?
1

Dear colleague, could you confirm whether CC(C)(C)c1cc([N+](=O)[O-])cc([N+](=O)[O-])c1O has growth inhibition at or above 20%?
1

Dear colleague, could you confirm whether CCOC(=O)C1C2c3ccccc3C(c3ccccc32)C1C(=O)OCC (configuration not stated) has growth inhibition at or above 20%?
1

Dear colleague, could you confirm whether Cc1c([N+](=O)[O-])oc2ccc3ccccc3c12 has growth inhibition at or above 20%?
1

Dear colleague, could you confirm whether Nc1ccc(Cl)cc1C(=O)c1ccccc1 has growth inhibition at or above 20%?
1

Dear colleague, could you confirm whether Nc1nnc(N)n1-n1c(N)nnc1N has growth inhibition at or above 20%?
-1

Dear colleague, could you confirm whether O=C1C=CC(=O)C1(Br)Br has growth inhibition at or above 20%?
1

Dear colleague, could you confirm whether CSC(=Nc1ccccc1)N(c1ccccc1)c1nc(=[N+](C)C)ss1 has growth inhibition at or above 20%?
1

---

Assay: NCI Yeast Anticancer Drug Screen. Data for the mlh1 strain (AID 171);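 note: 0% = growth of vehicle-treated control cultures of the same strain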
Settings: S. cerevisiae mlh1 strain growth inhibition; at 11.0 µM; active compounds read high
About 79,000 compounds went through this panel and 15% of them were active in at least one assay; those are over-represented in the sample as a whole.
EXPERIMENTAL_READOUT: growth inhibition (%)
Entry rule: numbers only, all in %.

Consider the worked cases shown below.
# MOLECULE, VALUE_UNIT, OBSERVED
measured = [
    ("CC1=C2C(=C[C@@](C)(CO)[C@@H]2O)C(=O)[C@](C)(O)C12CC2", "%", 2),
    ("NC1=NCC(c2ccc(Cl)cc2)O1 (stereo unspecified)", "%", -5),
    ("CC(C)(C)c1cc([N+](=O)[O-])cc([N+](=O)[O-])c1O", "%", -4),
]

Please give the documented growth inhibition of COc1ccc(OC)c(/C=C/[N+](=O)[O-])c1
8

Please give the documented growth inhibition of C[C@]12CC[C@H](O)CC1=CC[C@@H]1[C@@H]2CC[C@]2(C)C(=O)CC[C@@H]12
-49

Please give the documented growth inhibition of C/C(CCl)=N/NC1=NC(c2ccccc2Cl)P(=O)(NCCCNP2(=O)SC(N/N=C(/C)CCl)=NC2c2ccccc2Cl)S1 (stereo unspecified)
4

Please give the documented growth inhibition of COC(=O)C1C2c3ccccc3C(c3ccccc32)C1C(=O)OC (stereo unspecified)
-3

Please give the documented growth inhibition of CCS(=O)(=O)[O][Sn]([CH2]C)([CH2]C)[O]S(=O)(=O)CC
16

Please give the documented growth inhibition of CCC1(O)C(=O)OCc2c1cc1n(c2=O)Cc2c-1nc1ccccc1c2OC (stereo unspecified)
22

Please give the documented growth inhibition of O=[N+]([O-])c1cc(S(=O)(=O)F)ccc1Cl
29

Please give the documented growth inhibition of COC(=O)C1c2cc3c(c(O)c2C(O)CC1(C)O)C(=O)c1c(O)cc2c(c1C3=O)OC1OC2(C)C(O)C(N(C)C)C1O (stereo unspecified)
70

Please give the documented growth inhibition of COC1C(O)C(C)OC(OC2C(Oc3cccc4c(O)c5c(=O)oc6ccc(C)c7c(=O)oc(c34)c5c67)OC(C)C(O)C2O)C1O (stereo unspecified)
9

Please give the documented growth inhibition of O=C(O)CCCOc1cc(Cl)c(Cl)cc1Cl
2

Please give the documented growth inhibition of CNCC(O)c1ccc(O)c(O)c1.[Pt].c1ccc([PH+](c2ccccc2)c2ccccc2)cc1.c1ccc([PH+](c2ccccc2)c2ccccc2)cc1
8

Please give the documented growth inhibition of COC(COC(=O)N1CCN(C=O)CC1)C1=C(N2CC2)C(=O)C(C)=C(N2CC2)C1=O (stereo unspecified)
-9

Please give the documented growth inhibition of O=[N+]([O-])c1oc2ccc3ccccc3c2c1CCO
88

Please give the documented growth inhibition of CCc1cccc(C(C)C)c1NC1=C([n+]2ccc(C)cc2)C(=O)c2ccccc2C1=O
-4

Please give the documented growth inhibition of CC1CN=C(Nc2ccccc2)S1 (stereo unspecified)
-14

Please give the documented growth inhibition of c1c(N2CCOCC2)ssc1=[N+]1CCOCC1
0

Please give the documented growth inhibition of Br[Se]c1ccccn1
84

Please give the documented growth inhibition of C[C@]12CCc3nonc3C1CC[C@@H]1C2CC[C@]2(C)C(=O)CCC12 (stereo partly specified)
-1
